Below is a list of entries, each paired with its recorded growth value.
System: M14 melanoma
Test: NCI-60 one-dose screen, 48 h (100 = growth as untreated, 0 = no growth, -100 = all killed)
Conditions: 10 µM
This is part of a sample that, as a whole, favours compounds with a hit. Of some 83,000 tested, about 20% had one in any assay.
Just the number please, in %, no unit attached.

# Compound, Tested system, Measure unit, Observed
measured = [
    ("COc1ccc(-c2ccc(-c3ccc(C(=N)N)cn3)o2)cc1", "M14 melanoma", "%", 75.3),
    ("Cn1c([N+](=O)[O-])cnc1/C=C1\\Oc2cc(Cl)ccc2C1=O", "M14 melanoma", "%", -34.7),
    ("CCCCCCCCCCCCCCCCN(C(C)c1ccccc1)S(=O)(=O)c1ccc(OC)c(N)c1 (stereo unspecified)", "M14 melanoma", "%", 115),
    ("O=C1C(=O)c2ccccc2C(O)=C1CCCc1ccc(C2CCCCCC2)cc1", "M14 melanoma", "%", 49.3),
    ("COc1ccc2c(c1)N(CCO)C1=C(C(=O)OC1)C2c1ccc(OC)c(OC)c1 (stereo unspecified)", "M14 melanoma", "%", 36.1),
]

With those in mind, consider the next compound.
input: Specify growth for `ClCC#CCSc1ncnc2c1ncn2CC#CCCl` , system M14 melanoma.
output: 2.78

---

System: NCI-H23 lung
Assay: NCI-60 one-dose screen, 48 h (100 = growth as untreated, 0 = no growth, -100 = all killed)
Conditions: 10 µM
The panel holds about 83,000 compounds, 20% with a hit somewhere; the sample as a whole holds those more often.
Quantity measured: growth (%)
Just the number please, in %, no unit attached.

Take a look at these entries with their results.
# Compound, Tested system, growth, %
measured = [
    ("CCN(CC)CCOc1nc2ccc(OC)cc2c2c1-c1ccc(OC)cc1C2=O", "NCI-H23 lung", -30.5),
    ("CCOCCOCCOCCOCCOCCOCCOCCOCCOCCO (tested in a mixture with another compound)", "NCI-H23 lung", 7.79),
    ("Cc1ccc(NC(=O)Nc2c(Cl)cccc2Cl)cn1", "NCI-H23 lung", 109),
    ("COc1ccc(-c2cc(/C=C3\\C(=O)Nc4ccc(OC)cc43)[nH]n2)cc1", "NCI-H23 lung", 67.1),
    ("COc1ccc(-c2nn(-c3cccc(NC(=O)c4cc(C(F)(F)F)cc(C(F)(F)F)c4)c3)cc2-c2ccncc2)cc1Cl", "NCI-H23 lung", 81.1),
    ("O=C(Cc1csc2nc(-c3ccc(Cl)cc3)cn12)N/N=C/c1ccccc1O", "NCI-H23 lung", 59.5),
    ("CCN1CCN(c2nc3ccccc3c3c(=O)c4ccccc4sc23)CC1", "NCI-H23 lung", 64.2),
    ("Cc1ccc(NC(=O)Nc2cccnc2)cc1NC(=O)Nc1cccnc1", "NCI-H23 lung", 88.4),
    ("O=C(NC(Cc1ccc(O)cc1)C(=O)N=Nc1c(O)[nH]c2ccccc12)c1ccccc1 (stereo unspecified)", "NCI-H23 lung", 95),
    ("COc1cc(Nc2ncnc(Nc3ccc4c(n3)NC(=O)C(C)(C)O4)n2)cc(OC)c1OC", "NCI-H23 lung", 25.5),
]

input: Specify growth for `COc1ccc2c(c1)nc(N)c1c3cccnc3cn21` , system NCI-H23 lung.
output: 33.9

input: Specify growth for `O=C1/C(=C\c2ccccc2)CN(C(=O)c2ccccc2)C/C1=C\c1ccccc1` , system NCI-H23 lung.
output: 57.5

input: Specify growth for `COc1ccc(/C=C/C(C)=N/OCC(=O)O)cc1` , system NCI-H23 lung.
output: 103

input: Specify growth for `O=C(Nc1nc2ccccc2s1)Nc1ccc([N+](=O)[O-])cc1Cl` , system NCI-H23 lung.
output: 36.9
